# assay-explanation: Pharmacokinetic testing, intravenous bolus in rats
# Format: in vivo
# applied-conditions: rat, plasma, 2 mg/kg, male Sprague Dawley rats, 1 mg/mL in 2 mL/kg

molecule: O=C(O)c1ccc(-c2cnc(C(=O)CCCCCCc3ccccc3)o2)nc1
half-life / h: 0.15

molecule: O=C(CCCCCCc1ccccc1)c1ncc(-c2ccccn2)o1 [Comp. Ex. 1, reference compound]
half-life / h: 3.23

molecule: O=C(O)c1cccc(-c2cnc(C(=O)CCCCCCc3ccccc3)o2)n1
half-life / h: 1.24

molecule: O=C(CCCCCCc1ccccc1)c1ncc(-c2ccco2)o1 [Comp. Ex. 2, reference compound]
half-life / h: 3.49

---

# assay-explanation: Pharmacokinetic testing, intravenous bolus in rats
# Type: in vivo
# applied-conditions: rat, plasma, 2 mg/kg, male Sprague Dawley rats, 1 mg/mL in 2 mL/kg

molecule: O=C(O)c1ccc(-c2cnc(C(=O)CCCCCCc3ccccc3)o2)nc1
Vd (L/kg): 1.4
--
molecule: O=C(CCCCCCc1ccccc1)c1ncc(-c2ccccn2)o1 [Comp. Ex. 1, reference compound]
Vd (L/kg): 27.3
--
molecule: O=C(CCCCCCc1ccccc1)c1ncc(-c2ccco2)o1 [Comp. Ex. 2, reference compound]
Vd (L/kg): 22.9
--
molecule: O=C(O)c1cccc(-c2cnc(C(=O)CCCCCCc3ccccc3)o2)n1
Vd (L/kg): 0.86

---

# assay-target: FAAH (Homo sapiens, UniProt O00519)
# assay-explanation: Assay Method 1B: FAAH assay, 3H-anandamide hydrolysis in cell homogenate (T84 or SK-N-MC cells transfected with human FAAH)
# applied-conditions: 3H-AEA 80 nM, rt 1 h, pH 9
The recorded IC50 of each item maps onto one of these classes: class 1: < 10 nM; class 2: ≥ 10 nM and < 60 nM; class 3: ≥ 60 nM

chemical-smiles: O=C(CCCCCCc1ccccc1)c1ncc(-c2cccc(O)c2)o1
assay-target: FAAH (Homo sapiens, UniProt O00519)
category-label: class 2

chemical-smiles: NS(=O)(=O)c1ccc(-c2cnc(C(=O)CCCCCCc3ccccc3)o2)cc1
assay-target: FAAH (Homo sapiens, UniProt O00519)
category-label: class 1

chemical-smiles: NC(=O)c1cccc(-c2cnc(C(=O)CCCCCCc3ccccc3)o2)c1
assay-target: FAAH (Homo sapiens, UniProt O00519)
category-label: class 2

chemical-smiles: O=C(CCCCCCc1ccccc1)c1ncc(-c2ccccc2O)o1
assay-target: FAAH (Homo sapiens, UniProt O00519)
category-label: class 3

chemical-smiles: NS(=O)(=O)c1ccc(-c2cnc(C(=O)CCCCCCc3ccccc3)o2)s1
assay-target: FAAH (Homo sapiens, UniProt O00519)
category-label: class 1

chemical-smiles: COC(=O)c1ccc(-c2cnc(C(=O)CCCCCCc3ccccc3)o2)o1
assay-target: FAAH (Homo sapiens, UniProt O00519)
category-label: class 2

chemical-smiles: O=C(CCCCCCc1ccccc1)c1ncc(-c2cccc(C(=O)C(F)(F)F)c2)o1
assay-target: FAAH (Homo sapiens, UniProt O00519)
category-label: class 2

chemical-smiles: N#Cc1ccccc1-c1cnc(C(=O)CCCCCCc2ccccc2)o1
assay-target: FAAH (Homo sapiens, UniProt O00519)
category-label: class 3

chemical-smiles: Nc1ccc(-c2cnc(C(=O)CCCCCCc3ccccc3)o2)cc1
assay-target: FAAH (Homo sapiens, UniProt O00519)
category-label: class 3

chemical-smiles: COC(=O)c1cccc(-c2cnc(C(=O)CCCCCCc3ccccc3)o2)c1
assay-target: FAAH (Homo sapiens, UniProt O00519)
category-label: class 2

---

# assay-explanation: Solubility determination in water
# Format: physicochemical
# applied-conditions: thermodynamic from solid; in water at 5, 1 and 0.1 mg/mL; pH of resulting solutions 7-8.5
Items are presented alongside their recorded solubility.
metric-name: solubility

compound: O=C(O)c1ccc(-c2cnc(C(=O)CCCCCCc3ccccc3)o2)nc1 [Example 38]
observed-measurement: > 5000 µg/mL
//
compound: O=C(CCCCCCc1ccccc1)c1ncc(-c2ccccn2)o1 [Comp. Ex. 1, reference compound]
observed-measurement: < 100 µg/mL
//
compound: O=C(O)c1cccc(-c2cnc(C(=O)CCCCCCc3ccccc3)o2)n1 [Example 37]
observed-measurement: > 5000 µg/mL
//
compound: O=C(O)c1ccc(-c2cnc(C(=O)CCCCCCc3ccccc3)o2)o1 [Example 56]
observed-measurement: > 5000 µg/mL
//
compound: O=C(CCCCCCc1ccccc1)c1ncc(-c2ccco2)o1 [Comp. Ex. 2, reference compound]
observed-measurement: < 100 µg/mL

---

# assay-target: FAAH (Homo sapiens)
# assay-explanation: Assay Method 1B: FAAH assay, 3H-anandamide hydrolysis in cell homogenate (T84 or SK-N-MC cells transfected with human FAAH)
# applied-conditions: 3H-AEA 80 nM, rt 1 h, pH 9
# Procedure: Transfection of Cells with Human FAAH A 10-cm tissue culture dish with a confluent monolayer of SK—N-MC cells was split 2 days (d) prior to transfection. Using sterile technique, the media was removed and the cells were detached from the dish by the addition of trypsin. One fifth of the cells were then placed onto a new 10-cm dish. […] After 10 d, dishes were analyzed for surviving colonies of cells. […]
pIC50: −log10 of the molar value.
Items are presented alongside their recorded pIC50.
metric-name: pIC50

chemical-smiles: O=C(CCCCCCc1ccccc1)c1ncc(-c2ccccc2[N+](=O)[O-])o1
metric-name: pIC50
observed-measurement: 6.47
--
chemical-smiles: Nc1ccccc1-c1cnc(C(=O)CCCCCCc2ccccc2)o1
metric-name: pIC50
observed-measurement: 6.00
--
chemical-smiles: O=C(CCCCCCc1ccccc1)c1ncc(-c2ccccc2C(=O)O)o1
metric-name: pIC50
observed-measurement: 6.36
--
chemical-smiles: COC(=O)c1ccc(-c2cnc(C(=O)CCCCCCc3ccccc3)o2)s1
metric-name: pIC50
observed-measurement: 8.22
--
chemical-smiles: O=C(CCCCCCc1ccccc1)c1ncc(-c2c[nH]c(=O)[nH]c2=O)o1
metric-name: pIC50
observed-measurement: 5.10

---

# assay-target: FAAH (Homo sapiens, UniProt O00519)
# Sequence (O00519 1-579): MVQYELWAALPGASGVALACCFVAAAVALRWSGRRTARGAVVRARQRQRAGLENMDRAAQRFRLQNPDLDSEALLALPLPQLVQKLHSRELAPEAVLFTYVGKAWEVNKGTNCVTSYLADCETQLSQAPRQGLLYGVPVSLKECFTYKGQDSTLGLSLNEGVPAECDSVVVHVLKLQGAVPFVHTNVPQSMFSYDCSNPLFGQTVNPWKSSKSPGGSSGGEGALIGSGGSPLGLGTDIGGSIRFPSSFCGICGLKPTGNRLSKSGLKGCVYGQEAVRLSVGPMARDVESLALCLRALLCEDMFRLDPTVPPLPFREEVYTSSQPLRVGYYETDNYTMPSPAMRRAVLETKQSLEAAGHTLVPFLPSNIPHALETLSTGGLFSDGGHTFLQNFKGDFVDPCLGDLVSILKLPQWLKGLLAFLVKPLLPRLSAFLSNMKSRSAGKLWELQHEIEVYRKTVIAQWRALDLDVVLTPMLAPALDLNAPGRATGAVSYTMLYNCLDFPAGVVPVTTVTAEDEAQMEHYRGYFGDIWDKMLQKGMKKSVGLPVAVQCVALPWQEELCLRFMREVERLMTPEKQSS
# assay-explanation: Assay Method 1B: FAAH assay, 3H-anandamide hydrolysis in cell homogenate (T84 or SK-N-MC cells transfected with human FAAH)
# Assay type: biochemical
# Parameters: expressed in transfected cells
# applied-conditions: 3H-AEA 80 nM, rt 1 h, pH 9
pIC50: −log10 of the molar value.
Classify as follows. Reported pIC50 greater than or equal to 7: t. Reported pIC50 below: f.

chemical-smiles: O=C(CCCCCCc1ccccc1)c1ncc(-c2cccc([N+](=O)[O-])c2)o1
category-label: t
//
chemical-smiles: O=C(CCCCCCc1ccccc1)c1ncc(-c2cccc(F)c2)o1
category-label: f
//
chemical-smiles: O=C(CCCCCCc1ccccc1)c1ncc(-c2cc(=O)[nH]c(=O)[nH]2)o1
category-label: t
//
chemical-smiles: O=C(CCCCCCc1ccccc1)c1ncc(-c2ccc(C(=O)O)s2)o1
category-label: t
//
chemical-smiles: NS(=O)(=O)c1cccc(-c2cnc(C(=O)CCCCCCc3ccccc3)o2)c1
category-label: t
//
chemical-smiles: O=C(CCCCCCc1ccccc1)c1ncc(-c2ccccc2F)o1
category-label: f
//
chemical-smiles: COC(=O)c1ccccc1-c1cnc(C(=O)CCCCCCc2ccccc2)o1
category-label: f
//
chemical-smiles: COc1ccc(-c2cnc(C(=O)CCCCCCc3ccccc3)o2)cc1
category-label: f
//
chemical-smiles: COC(=O)c1cccnc1-c1cnc(C(=O)CCCCCCc2ccccc2)o1
category-label: f
//
chemical-smiles: NC(=O)c1ccc(-c2cnc(C(=O)CCCCCCc3ccccc3)o2)cc1
category-label: t
//
chemical-smiles: O=C(O)c1ccc(-c2cnc(C(=O)CCCCCCc3ccccc3)o2)nc1
category-label: t
//
chemical-smiles: COC(=O)c1ccc(-c2cnc(C(=O)CCCCCCc3ccccc3)o2)cc1
category-label: t
//
chemical-smiles: NS(=O)(=O)c1ccccc1-c1cnc(C(=O)CCCCCCc2ccccc2)o1
category-label: f
//
chemical-smiles: O=C(CCCCCCc1ccccc1)c1ncc(-c2ccc(C(=O)C(F)(F)F)cc2)o1
category-label: f
//
chemical-smiles: O=C(O)c1cccc(-c2cnc(C(=O)CCCCCCc3ccccc3)o2)c1
category-label: t
//
chemical-smiles: COc1ccccc1-c1cnc(C(=O)CCCCCCc2ccccc2)o1
category-label: f
//
chemical-smiles: N#Cc1cccc(-c2cnc(C(=O)CCCCCCc3ccccc3)o2)c1
category-label: t
